system: MCF7 breast; assay: NCI tumour cell line growth inhibition, 48 h
quantity_measured: TGI (µM)
Report the value in µM with no unit label.

Data request: GET /values?readout=TGI&item= "O=C(Oc1ccc2c(c1)CN(Cc1ccccc1)CO2)c1ccccc1"
Data returned: 32.7

Data request: Could you tell me which TGI is on file for CNCc1cccc2c1OCCOCCOCCC(C)S(=O)(=O)c1ccc(cc1)-c1cnc(N)c(n1)C(=O)N2 (centres undefined) ?
Data returned: 14.6

Data request: Name the recorded TGI for "CNCc1ccc(-c2[nH]c3cc(F)cc4c3c2CCNC4=O)cc1" .
Data returned: 35.5

Data request: Fill blank: measured TGI of the molecule CC(C)=CCc1c2c(c(O)c3c(=O)c4c(oc13)-c1ccc(O)cc1OC4C=C(C)C)C=CC(C)(C)O2 (centres undefined) is ____.
Data returned: 28.9

Data request: Find the recorded TGI belonging to "CN(/N=C\c1ccc2ccccc2c1)C1=NCCCN1" and report it.
Data returned: 26.4

Data request: // query TGI value for entry "C/C(=N\NC(=S)N1CCOCC1)c1nc2ncccc2[nH]1"
Data returned: 80.4

Data request: May I ask what TGI has been recorded for "c1ccc(-c2c(-c3[nH]c4ccccc4c3-c3ccccc3)[nH]c3ccccc23)cc1" ?
Data returned: 11.9

Data request: Which value of TGI has been reported for "OCC#Cc1ccccc1C#Cc1ccc(C#Cc2ccccc2)cc1" in the records?
Data returned: 38.3

###

test system: MOLT-4 leukemia; experiment: NCI tumour cell line growth inhibition, 48 h; in the data active means GI50 below about 0.43 µM; inactive means the rest
Response enum: true = active, false = inactive

molecule: CC1OC(OC2C(O[C@H]3CC[C@@]4(C)C(=CC[C@H]5[C@@H]6C[C@@H]7O[C@]8(CC[C@@H](C)CO8)[C@@H](C)[C@@H]7[C@@]6(C)CC[C@@H]54)C3)OC(CO)C(OC3OC(CO)C(O)C3O)C2O)C(O)C(O)C1O (stereo partly specified)
class_assignment: true
//
molecule: c1cncc(C2ONC3=NCCN32)c1 (stereo unspecified)
class_assignment: false
//
molecule: COc1c(O)c2c3c(c1OC)-c1ccccc1CC3N(S(=O)(=O)c1ccc(C)cc1)CC2 (stereo unspecified)
class_assignment: false
//
molecule: O=C1CCS/C(=N/S(=O)(=O)c2ccc(N3N=C4c5ccccc5CC4C3c3cccs3)cc2)N1Cc1ccccc1 (stereo unspecified)
class_assignment: false

Data request: Dear all, I need the recorded test outcome for "N/C(=N\C(N)=N\c1nc2ccccc2s1)c1cnccn1" , thank you.
Data returned: false

Data request: Could you kindly confirm the outcome this assay logged for "O=C(C(=O)c1cc(Br)ccc1O)c1cc(Br)ccc1O" ?
Data returned: false

Data request: What is the recorded call for this molecule in the test? "C=C(Cl)[C@@](Cl)(CBr)CC[C@@H](Br)C(C)(C)Cl"
Data returned: false

Data request: Call for entry CCCCCCCCCCCCOC1C(C(CC(=O)N2CCN(Cc3ccc4c(c3)OCO4)CC2)NS(=O)(=O)c2cc(Cl)cc(Cl)c2)OC2OC(C)(C)OC21 (stereo unspecified) :
Data returned: false

Data request: What was the test verdict on "N#CCC1(n2cc(-c3ncnc4[nH]ccc34)cn2)CN(C2CCN(C(=O)c3ccnc(C(F)(F)F)c3F)CC2)C1" ?
Data returned: false

Data request: Kindly provide the recorded test outcome for the following molecule: Nc1ncc(C2[C@H](CNC(=O)c3cc(Br)c[nH]3)C(CNC(=O)c3cc(Br)c[nH]3)[C@@H]2c2cnc(N)[nH]2)[nH]1 (stereo partly specified)
Data returned: false

Data request: Field: outcome | Entry: "CC1(C)CC[C@]2(C(=O)O)CC[C@]3(C)C(=CC[C@@H]4[C@@]5(C)C/C(=C/c6ccco6)C(=O)C(C)(C)[C@@H]5CC[C@]43C)[C@@H]2C1"
Data returned: false

Data request: Hi, do you know how "CCN1CCN(c2nc(NNC(=O)c3ccccc3)nc(N3CCN(C(c4ccccc4)c4ccccc4)CC3)n2)CC1" came out in this test?
Data returned: false

Data request: // outcome(item) with item = "COC(=O)c1ccc2[nH]c(O)c(C(=Nc3ccc(N(C)C(=O)CN4CCN(C)CC4)cc3)c3ccccc3)c2c1"
Data returned: true

Data request: What is the recorded call for this molecule in the test? C#Cc1cccc(NC(=O)C2CCCN(C(=O)CCl)C2)c1 (stereo unspecified)
Data returned: false

Data request: Give the logged outcome of this assay for the following molecule: "[Cl-].[Gd+3].[O-]/N=C(\c1ccccc1)c1ccccn1.[O-]/N=C(\c1ccccc1)c1ccccn1.[O-]/N=C(\c1ccccc1)c1ccccn1"
Data returned: false

Data request: Recorded test call requested for COc1ccc(OCC(O)CN2CCN(c3ccc(Cl)cc3)CC2)cc1 (stereo unspecified)
Data returned: false

###

test system: SF-539 CNS; test: NCI tumour cell line growth inhibition, 48 h
Listed here: items and their measured GI50.

compound: COC(=O)[C@]1(C)CCC[C@]2(C)[C@@H]1CCC13C[C@@H](C=CO1)[C@@H](C)CC32O (some centres undefined)
GI50: 0.0516 µM

Data request: Find the recorded GI50 belonging to "O=c1cccccc1[O-].O=c1cccccc1[O-].O=c1cccccc1[O-].[Sm+3]" and report it.
Data returned: 29.1 µM

Data request: Could you tell me which GI50 is on file for "COc1cc(/C=C2\C(=O)N(C)c3ccccc32)cc(OC)c1OC" ?
Data returned: 19.7 µM

Data request: Find the recorded GI50 belonging to "C=CCN=C(N/N=C/c1ccc([N+](=O)[O-])o1)NS(=O)(=O)c1cc(C(=O)Nc2ccccc2)c(Cl)cc1SCC(N)=O" and report it.
Data returned: 18.8 µM

Data request: Need GI50, item "CC1(C)CC[C@]2(C(=O)O)CC[C@]3(C)C(=CC[C@@H]4[C@@]5(C)C/C(=C/c6ccco6)C(=O)C(C)(C)[C@@H]5CC[C@]43C)[C@@H]2C1"
Data returned: 3.34 µM

Data request: Data request, read-out GI50, for "CCN1CCN(c2nc(NNC(=O)c3ccccc3)nc(N3CCN(C(c4ccccc4)c4ccccc4)CC3)n2)CC1"
Data returned: 1.84 µM

Data request: GET /values?readout=GI50&item= "O=c1nc2[nH]c3c(-c4n[nH]c(=O)[nH]c4=O)cccc3c2n[nH]1"
Data returned: > 100 µM

Data request: If you can, please state the reported GI50 value of "CC1=C(CNO)C2=C(C)C3(CC3)[C@@](C)(O)C(=O)C2=C1" .
Data returned: 1.64 µM

Data request: If you can, please state the reported GI50 value of O=C(c1ccccc1)C(Br)C(Br)c1ccccc1 (centres undefined) .
Data returned: 10.7 µM

###

Measured GI50, listed per entry for reference.
system: SF-295 CNS; experiment: NCI tumour cell line growth inhibition, 48 h

compound: Oc1ccccc1C=Nc1nc(OCc2ccccc2)nc2[nH]ncc12
GI50: 19.9 µM
//
compound: CC1(C)CC[C@]2(C(=O)O)CC[C@]3(C)C(=CC[C@@H]4[C@@]5(C)C/C(=C/c6ccco6)C(=O)C(C)(C)[C@@H]5CC[C@]43C)[C@@H]2C1
GI50: 3.22 µM
//
compound: NC(N)=N/N=C/c1c(-c2ccncc2)nc2sc(Cl)cn12
GI50: 13.5 µM
//
compound: Fc1ccc(-c2nn3c(COc4ccc(Cl)cc4)nnc3s2)cc1Oc1ccccc1
GI50: 15.2 µM

Data request: Query for SF-295 CNS: what GI50 does the record show for O=C(c1ccccc1)C(Br)C(Br)c1ccccc1 (stereo not given) ?
Data returned: 11.9 µM

###

system: A498 renal; test: NCI tumour cell line growth inhibition, 48 h
Measured TGI, listed per entry for reference.
Numeric answer only, unit µM assumed.

molecule: CC1(Cl)CC(C)(/C=C/Cl)C(Cl)CC1Cl (stereo unspecified)
TGI / µM: 34
--
molecule: Oc1ccccc1C=Nc1nc(OCc2ccccc2)nc2[nH]ncc12
TGI / µM: 56.9

# next molecule below
Data request: May I ask what TGI has been recorded for CNCc1cccc2c1OCCOCCOCCC(C)S(=O)(=O)c1ccc(cc1)-c1cnc(N)c(n1)C(=O)N2 (stereo unspecified) ?
Data returned: 2.14

###

system: SF-268 CNS; assay: NCI tumour cell line growth inhibition, 48 h; in the data active means GI50 below about 0.43 µM; inactive means the rest
// allowed return values: 1.0 for active, 0.0 for inactive

compound: CCN1CCN(c2nc(NNC(=O)c3ccccc3)nc(N3CCN(C(c4ccccc4)c4ccccc4)CC3)n2)CC1
class_assignment: 0.0
//
compound: C=C1CC/C=C(\C)CC[C@H](C(=C)C)[C@@H](O)/C=C(/CO)CCC1O (stereo not given in full)
class_assignment: 0.0

// next entry
Data request: Assay outcome for O=C1CCS/C(=N/S(=O)(=O)c2ccc(N3N=C4c5ccccc5CC4C3c3cccs3)cc2)N1Cc1ccccc1 (stereo not given) : what was it?
Data returned: 0.0

###

test system: HOP-62 NSCLC; assay: NCI tumour cell line growth inhibition, 48 h
quantity_measured: TGI

Solved entries (count: 3):
compound: COc1ccc(OCC(O)CN2CCN(c3ccc(Cl)cc3)CC2)cc1 (configuration not stated)
TGI: > 100 µM
//
compound: COc1ccc(OC)c2c(=O)c3ccccc3[nH]c12
TGI: > 100 µM
//
compound: N#CC(NC(=O)CCl)=C(Cl)Cl
TGI: 4.83 µM

Data request: Quick check: TGI of Clc1cc2ncn(C3CCCCO3)c2cc1Cl (configuration not stated) ?
Data returned: > 100 µM

Data request: Item COC(=O)[C@]1(C)CCC[C@]2(C)[C@@H]1CCC13C[C@@H](C=CO1)[C@@H](C)CC32O (some centres not stated) has what recorded TGI?
Data returned: > 100 µM

Data request: Form field: reported TGI of "CCOc1ccc(Nc2nc(-c3c(C)nc4ncccn34)cs2)cc1"
Data returned: 18.4 µM

Data request: So what does the record say about TGI for "CNCc1ccc(-c2[nH]c3cc(F)cc4c3c2CCNC4=O)cc1" ?
Data returned: 43.4 µM

Data request: // TGI lookup, key: "Cc1ccc(NC(=O)C(=O)Cc2cccc[n+]2[O-])cc1C"
Data returned: > 100 µM

Data request: Fill blank: measured TGI of the compound CCCCCCCCCCCCCCCC(=O)OCC1OC(n2cc(F)c(=O)[nH]c2=O)C(NC(=O)N(CCCl)N=O)C(O)C1O (configuration not stated) is ____.
Data returned: 2.34 µM

Data request: Item "COc1ccc(/C=C/C(C)=N/OCC(=O)Nc2ccc(Cl)cc2)cc1" has what recorded TGI?
Data returned: 27.5 µM

Data request: Which value of TGI has been reported for "C=CCN1C(=O)CC(=O)N(NC2=NNC3(C(=O)N2)c2ccccc2-c2ccccc23)C1=S" in the records?
Data returned: > 100 µM

Data request: Need TGI, item "Cc1ccccc1Nc1nc2ccccc2nc1NS(=O)(=O)c1ccccc1"
Data returned: > 100 µM

Data request: // returns reported TGI for input "O=C(O)/C=C/c1ccncc1"
Data returned: 0.746 µM

Data request: Which value of TGI has been reported for "NC(N)=N/N=C/c1c(-c2ccncc2)nc2sc(Cl)cn12" in the records?
Data returned: 37.2 µM

Data request: Item under review: "COC(=O)c1sc(=NC(=S)N2CCCCC2)sc1C(=O)OC" . Reported TGI?
Data returned: > 100 µM

Data request: What TGI value was documented for this compound, "CC1=C(CNO)C2=C(C)C3(CC3)[C@@](C)(O)C(=O)C2=C1" ?
Data returned: 4.57 µM

# credit: PubChem BioAssay (NCI)
